system name: JAK3 (Homo sapiens, UniProt P52333)
Construct: made in house; host or cells: SF9 insect cells (baculovirus)
Sequence (P52333 783-1124): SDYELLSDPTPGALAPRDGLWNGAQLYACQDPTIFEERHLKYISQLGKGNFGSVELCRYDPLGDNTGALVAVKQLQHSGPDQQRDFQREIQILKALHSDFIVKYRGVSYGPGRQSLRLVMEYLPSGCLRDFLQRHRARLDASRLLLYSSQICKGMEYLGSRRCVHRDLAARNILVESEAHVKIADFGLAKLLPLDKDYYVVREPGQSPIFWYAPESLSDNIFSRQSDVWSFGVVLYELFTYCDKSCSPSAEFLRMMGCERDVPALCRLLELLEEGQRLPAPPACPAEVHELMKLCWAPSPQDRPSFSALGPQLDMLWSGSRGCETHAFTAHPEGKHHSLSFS
experimental protocol: JAK3 inhibition (Table 4)
Format: biochemical
experimental conditions: read-out: JAK3 Ki
pKi: −log10 of the molar value.
readout name: pKi

compound	readout name	observed
CC(C)C(=O)N[C@H]1CC[C@H](n2cnc3cnc4[nH]ccc4c32)CC1	pKi	6.71
N#CCCN1CCC(n2c(CCNS(=O)(=O)C3CC3)nc3cnc4[nH]ccc4c32)CC1	pKi	7.56
O=C(Cc1nc2cnc3[nH]ccc3c2n1C1CCCOC1)NCC(F)F (racemic)	pKi	6.89
O=C(CC1CC1)N1CCC[C@@H](n2cnc3cnc4[nH]ccc4c32)C1	pKi	7.55
CS(=O)(=O)Nc1ccc(N2CCC(n3cnc4cnc5[nH]ccc5c43)CC2)nc1	pKi	6.87
CC(C)C(=O)NCc1nc2cnc3[nH]ccc3c2n1C1CCN(CCC#N)CC1	pKi	7.22
C[C@@H](O)c1nc2cnc3[nH]ccc3c2n1C1CCCCC1 [Example 671]	pKi	7.65
C#CCCN1CCC(n2c([C@@H](C)O)nc3cnc4[nH]ccc4c32)CC1	pKi	6.75
Cc1nc2cnc3[nH]ccc3c2n1[C@@H]1CC[C@@H](NCCC#N)C1	pKi	7.80
CN(CCO)C(=O)Cc1nc2cnc3[nH]ccc3c2n1C1CCCOC1 (racemic)	pKi	6.29
O=C1CCC2(CCC(n3cnc4cnc5[nH]ccc5c43)CC2)N1 (centres unmarked)	pKi	7.40
CN1CCCCC1C(=O)N1CCC(n2cnc3cnc4[nH]ccc4c32)CC1 (single isomer, unassigned)	pKi	5.70
C[C@@H](O)c1nc2cnc3[nH]ccc3c2n1[C@@H]1CCC[C@@H](O)C1	pKi	7.24
O=C(N[C@H]1CC[C@H](n2cnc3cnc4[nH]ccc4c32)CC1)OC1CCCC1	pKi	6.87
Cc1nc2cnc3[nH]ccc3c2n1[C@@H]1CCC[C@@](C)(O)C1	pKi	6.89
CO[C@H]1CC[C@H](n2c([C@@H](C)O)nc3cnc4[nH]ccc4c32)CC1	pKi	6.43
NC(=O)CN1CCC[C@@H](n2cnc3cnc4[nH]ccc4c32)C1	pKi	7.02

----------
A collection of compounds and their measured log10 Ki
Target protein (sequence): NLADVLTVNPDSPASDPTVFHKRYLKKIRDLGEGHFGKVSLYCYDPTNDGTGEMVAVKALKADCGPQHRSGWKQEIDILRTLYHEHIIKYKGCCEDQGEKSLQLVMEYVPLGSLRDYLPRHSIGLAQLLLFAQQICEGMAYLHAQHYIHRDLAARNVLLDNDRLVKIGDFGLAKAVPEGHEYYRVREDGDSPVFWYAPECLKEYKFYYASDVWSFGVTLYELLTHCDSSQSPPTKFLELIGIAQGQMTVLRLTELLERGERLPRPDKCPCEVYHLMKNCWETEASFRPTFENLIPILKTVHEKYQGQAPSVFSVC
readout name: log10 Ki (log10 of the value in nM)

compound	readout name	observed
N#CCCN1CCC(n2c(C3CC3(F)F)nc3cnc4[nH]ccc4c32)CC1 (racemic) [Example 404]	log10 Ki	2.00
C[C@@H](O)c1nc2cnc3[nH]ccc3c2n1C1CCC(n2ccnn2)CC1 (stereo partly drawn) [Example 1003]	log10 Ki	1.58
CC(C)(C)OC(=O)N[C@@H]1CC[C@@H](n2nnc3cnc4[nH]ccc4c32)C1 [Example 727]	log10 Ki	2.16
c1cnc(N2CCC(n3cnc4cnc5[nH]ccc5c43)CC2)nc1 [Example 64]	log10 Ki	2.69
O=C(CCC(F)(F)F)NC1CCC(n2cnc3cnc4[nH]ccc4c32)C1 (racemic) [Example 732]	log10 Ki	1.81
Cc1nc2cnc3[nH]ccc3c2n1C1CCC(NC(=O)N2CC(F)(F)C2)CC1 (stereo not drawn) [Example 748]	log10 Ki	2.65
CC(C)(C)OC(=O)N1CC(n2cnc3cnc4[nH]ccc4c32)C1 [Example 3]	log10 Ki	3.21
O=C(Cc1nc2cnc3[nH]ccc3c2n1C1CCCOC1)NC1CCOCC1 (racemic) [Example 983]	log10 Ki	2.48
CC(O)c1nc2cnc3[nH]ccc3c2n1C1CCN(Cc2cnco2)CC1F (stereo not drawn) [Example 933]	log10 Ki	1.74
CC(O)c1nc2cnc3[nH]ccc3c2n1C1CC2CCC1O2 (single isomer, unassigned) [Example 846]	log10 Ki	2.87
C[C@@H](O)c1nc2cnc3[nH]ccc3c2n1C1CCC(C#N)CC1 (stereo partly drawn) [Example 776]	log10 Ki	-0.14
C[C@@H](O)c1nc2cnc3[nH]ccc3c2n1C1CCN(Cc2ncccc2F)CC1 [Example 682]	log10 Ki	2.59
c1ccc(N2CCC[C@@H](n3cnc4cnc5[nH]ccc5c43)C2)cc1 [Example 12]	log10 Ki	2.23
CS(=O)(=O)NCc1nc2cnc3[nH]ccc3c2n1C1CCCCC1 [Example 200]	log10 Ki	1.29
COC1CN(CCC#N)CCC1n1c(C)nc2cnc3[nH]ccc3c21 (racemic) [Example 538]	log10 Ki	0.94
Cc1nc2cnc3[nH]ccc3c2n1C1CCC(C)(O)CC1 (stereo not drawn) [Example 994]	log10 Ki	1.40
O=C(CN1CCCC1=O)N1CCC(n2cnc3cnc4[nH]ccc4c32)CC1 [Example 440]	log10 Ki	2.85
c1ccc(CN2CCC(n3c(C4CNC4)nc4cnc5[nH]ccc5c43)CC2)cc1 [Example 162]	log10 Ki	2.83

----------
Reported Ki values for a set of compounds
system name: JAK2 (Homo sapiens)
Construct: made in house; host or cells: SF9 insect cells (baculovirus)
experimental protocol: JAK2 inhibition (Table 4)
Assay type: biochemical
experimental conditions: read-out: JAK2 Ki

compound	Ki (nM)
OCc1nc2cnc3[nH]ccc3c2n1C1CCN(CCC(F)(F)F)CC1	23
N#CCCN1CCC(n2c(Cn3cccn3)nc3cnc4[nH]ccc4c32)CC1	23.3
Cc1nc2cnc3[nH]ccc3c2n1C1CCN(C(=O)NCCC(F)(F)F)CC1	872
O=C([C@H]1CCCN1)N1CCC(n2cnc3cnc4[nH]ccc4c32)CC1	342
CCNC(=O)Cc1nc2cnc3[nH]ccc3c2n1C1CCCOC1 (racemic)	208

----------
system name: JAK1 (Homo sapiens, UniProt P23458)
Construct: made in house; host or cells: SF9 insect cells (baculovirus)
Sequence (P23458 852-1154): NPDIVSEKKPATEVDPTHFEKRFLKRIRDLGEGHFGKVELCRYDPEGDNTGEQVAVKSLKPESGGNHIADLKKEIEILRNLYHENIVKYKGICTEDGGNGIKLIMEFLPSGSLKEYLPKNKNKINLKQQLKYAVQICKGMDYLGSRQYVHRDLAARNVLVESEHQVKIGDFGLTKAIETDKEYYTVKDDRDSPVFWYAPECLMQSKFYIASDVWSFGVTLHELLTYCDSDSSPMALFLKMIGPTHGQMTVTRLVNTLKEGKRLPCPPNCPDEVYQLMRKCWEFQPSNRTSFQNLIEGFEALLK
experimental protocol: JAK1 inhibition (Table 4)
Assay type: biochemical
experimental conditions: read-out: JAK1 Ki

molecule	unit name	Ki
N#CCCN1CCC(n2c(C3CC3)nc3cnc4[nH]ccc4c32)CC1 [Example 337]	nM	2.9
c1cc2c(ncc3ncn(C4CCCNCC4)c32)[nH]1 (racemic) [Example 489]	nM	34
FC(F)c1nc2cnc3[nH]ccc3c2n1C1CCNCC1 [Example 307]	nM	18.2
NC1CCCC(n2cnc3cnc4[nH]ccc4c32)C1 (single isomer, unassigned) [Example 367]	nM	42.2
C[C@@H](O)c1nc2cnc3[nH]ccc3c2n1C1CCC(NCC(F)F)CC1 (some centres unmarked) [Example 1002]	nM	0.97
c1cc2c(ncc3ncn(C4CCCCNC4)c32)[nH]1 (single isomer, unassigned) [Example 110]	nM	154
CC(C)C(=O)NCCc1nc2cnc3[nH]ccc3c2n1C1CCN(CCC#N)CC1 [Example 378]	nM	5.03
N#CCC(=O)N1CCC(F)C(n2nnc3cnc4[nH]ccc4c32)C1 (racemic) [Example 519]	nM	1.74

----------
Entries and their pKi values follow.
system name: JAK2 (Homo sapiens, UniProt O60674)
Construct: made in house; host or cells: SF9 insect cells (baculovirus)
Sequence (O60674 812-1132): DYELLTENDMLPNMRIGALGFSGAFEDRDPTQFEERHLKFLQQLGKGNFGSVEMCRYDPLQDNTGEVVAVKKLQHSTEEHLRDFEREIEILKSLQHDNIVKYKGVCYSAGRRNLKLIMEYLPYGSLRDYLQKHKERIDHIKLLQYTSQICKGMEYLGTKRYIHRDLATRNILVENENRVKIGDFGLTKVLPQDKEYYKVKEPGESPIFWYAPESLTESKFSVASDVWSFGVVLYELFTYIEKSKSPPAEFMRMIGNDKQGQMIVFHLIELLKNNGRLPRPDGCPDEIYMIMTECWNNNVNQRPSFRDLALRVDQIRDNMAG
experimental protocol: JAK2 inhibition (Table 4)
Type: biochemical
experimental conditions: read-out: JAK2 Ki
pKi: −log10 of the molar value.
readout name: pKi

compound	readout name	observed
C[C@@H](O)c1nc2cnc3[nH]ccc3c2n1C1CCN(Cc2ncccc2F)CC1	pKi	6.99
c1cc2c(ncc3ncn(C4CCN(C5CCOCC5)CC4)c32)[nH]1	pKi	7.19
C[C@@H](O)c1nc2cnc3[nH]ccc3c2n1C1CCCC1	pKi	7.02
CS(=O)(=O)N[C@H]1CC[C@H](n2cnc3cnc4[nH]ccc4c32)CC1	pKi	8.45
CC(O)c1nc2cnc3[nH]ccc3c2n1C1CC2CCC1O2 (single isomer, unassigned) [Example 846]	pKi	6.43
CCN1CC[C@@H](n2nnc3cnc4[nH]ccc4c32)[C@@H](F)C1	pKi	7.24
CC(C)(C)OC(=O)N1CC(CN[C@H]2CC[C@H](n3cnc4cnc5[nH]ccc5c43)CC2)C1	pKi	6.87
O=C(Cc1nc2cnc3[nH]ccc3c2n1C1CCCOC1)NC1CCC1 (racemic)	pKi	6.80
Cn1cc2c(n1)CCC(n1cnc3cnc4[nH]ccc4c31)C2 (racemic)	pKi	7.05
Cc1nc2cnc3[nH]ccc3c2n1[C@H]1CC[C@H](N)CC1	pKi	7.72
C[C@H](O)c1nc2cnc3[nH]ccc3c2n1C1CCCOC1 (single isomer, unassigned) [Example 462]	pKi	6.27
CC(O)c1nc2cnc3[nH]ccc3c2n1CC1CCCO1 (centres unmarked) [Example 699]	pKi	6.88
N#CCCN1CCC(n2c(CO)nc3cnc4[nH]ccc4c32)CC1	pKi	8.29
O=C(Cc1nc2cnc3[nH]ccc3c2n1C1CCN(Cc2cccnc2)CC1)N1CCC(F)(F)CC1	pKi	7.32
CC(C)(C)C(=O)NCCc1nc2cnc3[nH]ccc3c2n1C1CCN(CCC#N)CC1	pKi	7.05
OC[C@H]1CC[C@H](n2cnc3cnc4[nH]ccc4c32)CC1	pKi	8.59
CC(C)(C)OC(=O)N1CCCC[C@H]1CN[C@H]1CC[C@H](n2cnc3cnc4[nH]ccc4c32)CC1	pKi	6.15

Data credit: patent US8461328B2
